assay: Cell viability; assay type: cell-based; conditions: human, Caco-2 cells
Endpoint name: IC50 at 72 h (µM)
Return type: number; implicit unit µM.

Example cases with answers are listed next.
Molecule	IC50 at 72 h, µM
CCCCCCCCCCOc1ccc(/C=C/C(=O)O)cc1OC [Compound 3f]	76.8
CCCCCCCCCCOc1c(OC)cc(C(=O)O)cc1OC [Compound 5f, 4-(Decyloxy)-3,5-dimethoxybenzoic acid]	62.8

Could you now look at the following molecule, please?
Name the reported IC50 at 72 h value associated with the molecule CCCCCCCCOc1ccc(/C=C/C(=O)O)cc1OC [Compound 3e]
96.2

---

Listing of recorded Antioxidant capacity (DPPH), IC50 by entry.
assay: DPPH˙ scavenging activity; conditions: 30 min, 515 nm; tested 10–100 µg mL^−1
Return type: number; implicit unit µg/mL.

Cpd smiles	Antioxidant capacity (DPPH), IC50 / µg/mL
CCCOc1c(OC)cc(C(=O)O)cc1OC	11.47

Could you now look at the following compound, please?
Name the reported Antioxidant capacity (DPPH), IC50 value associated with the compound CCOc1ccc(/C=C/C(=O)O)cc1OC
56.50
